# METHOD_SUMMARY: qHTS Screen of the MIPE 4.0 Collection Against Ewings Sarcoma (EW8) (AID 1259255); also: nearly all actives have a fitted effect of over 35% in size
# STUDY_CONDITIONS: EW8 Ewing sarcoma viability, CellTiter-Glo, 48 h; series mostly up to 45.8 µM
Results filed as inconclusive are left out. Active and inactive are the calls of the source. Calls follow the shape of the dose curve; as a rule, active = well fitted inhibition curve with a large enough effect; inconclusive = small, poorly fitted or top-dose-only effect; inactive = no such curve, though single readings can be large or run the other way.
Assign a class; possible classes are active, inactive

Worked set:
{"MOLECULE": "CC(O)C1C(=O)N2C(C(=O)O)=C(SC3CNC(C(=O)N(C)C)C3)C(C)C12 (stereo not drawn)", "CLASS_NAME": "inactive"}
{"MOLECULE": "COc1c(OCCCN2CCOCC2)ccc2c3n(c(=NC(=O)c4cnc(N)nc4)nc12)CCN3", "CLASS_NAME": "active"}
{"MOLECULE": "CC(C)=CCCC(C)=CCCC(C)=CCSc1ccccc1C(=O)O", "CLASS_NAME": "active"}
{"MOLECULE": "Cc1cc(Nc2cc(N3CCN(C)CC3)nc(Sc3ccc(NC(=O)C4CC4)cc3)n2)n[nH]1", "CLASS_NAME": "active"}
{"MOLECULE": "NC(=O)c1cccc2cn(-c3ccc([C@@H]4CCCNC4)cc3)nc12", "CLASS_NAME": "active"}

Task: Would you mind telling me which call this test gave COc1ccc(-c2cc3c(C)nc(N)nc3n(C3CCC(OCCO)CC3)c2=O)cn1 (stereo not drawn) ?
Result: active

Task: Would you mind telling me which call this test gave CN(C)Cc1c(C(=O)NCCOc2ccc(C(=O)NO)cc2)oc2ccccc12 ?
Result: active

Task: Would you mind telling me which call this test gave Cc1cc(Nc2cc(CN3CCOCC3)c3nc(C)c(Cc4ccc(Cl)cc4F)n3n2)n[nH]1 ?
Result: active

Task: Would you mind telling me which call this test gave CN1CCN(c2ccc3nc(-c4c(N)c5c(F)cccc5[nH]c4=O)[nH]c3c2)CC1 ?
Result: active

Task: Would you mind telling me which call this test gave CC(=O)SC[C@@H](C)C(=O)N1CCC[C@H]1C(=O)N[C@@H](Cc1ccccc1)C(=O)O ?
Result: inactive
